Each entry below carries its recorded EC50.
Biological target: hGIPR (Homo sapiens, UniProt P48546)
Sequence (P48546 22-466): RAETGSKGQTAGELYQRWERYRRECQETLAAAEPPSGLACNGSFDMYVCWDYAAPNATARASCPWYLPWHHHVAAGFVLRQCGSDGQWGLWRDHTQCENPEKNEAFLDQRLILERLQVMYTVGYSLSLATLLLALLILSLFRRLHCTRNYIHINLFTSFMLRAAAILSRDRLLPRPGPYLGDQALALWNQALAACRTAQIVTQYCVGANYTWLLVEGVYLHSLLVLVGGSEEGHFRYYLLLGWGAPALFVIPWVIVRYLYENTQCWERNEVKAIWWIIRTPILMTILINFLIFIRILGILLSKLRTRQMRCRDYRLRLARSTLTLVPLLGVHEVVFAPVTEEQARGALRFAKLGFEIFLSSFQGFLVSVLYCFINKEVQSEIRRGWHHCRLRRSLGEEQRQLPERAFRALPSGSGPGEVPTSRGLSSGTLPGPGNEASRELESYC
Assay: Functional cAMP activation in the presence of 0.1% casein (no HSA);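 also: intracellular cAMP rise after 30 min at 37 °C read by HTRF against a standard curve, scaled between buffer alone (0%) and top control ligand concentration (100%), four-parameter fit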
Assay type: cell-based
Settings: read-out: Relative cAMP EC50, hGIPR
Starred links: 1 amine or outer side, 2 acyl side, 3 side chain; linkers in the order of their positions; H or OH if unused. Non-standard residues stand in square brackets, D forms with d. Groups on a side chain read outwards from the residue. No end group written: not given here. *: point of attachment. C18 diacid = O=C(O)CCCCCCCCCCCCCCCCC(=O)*; αMePhe(2-F) = C[C@](N)(Cc1ccccc1F)C(=O)O; γGlu = O=C(O)[C@H](CCC(=O)[*:2])N[*:1]; αMe4Pal = C[C@](N)(Cc1ccncc1)C(=O)O; αMeY = C[C@](N)(Cc1ccc(O)cc1)C(=O)O; 4Pal = N[C@@H](Cc1ccncc1)C(=O)O; αMeL = CC(C)C[C@](C)(N)C(=O)O; αMeS = C[C@](N)(CO)C(=O)O; Orn = NCCC[C@H](N)C(=O)O; AEEA = NCCOCCOCC(=O)O; Aib = CC(C)(N)C(=O)O
Attribute Measured: EC50 (pM)

H-Y[Aib]QGT[αMePhe(2-F)]TSD[4Pal][αMeS]I[αMeL]LD[Orn]K([γGlu-γGlu-C18 diacid])AQ[αMe4Pal]EFI[dE][αMeY]LIEGGPSSGAPPPSGTGE-NH2 [Example 718] | 7.06
H-Y[Aib]QGT[αMePhe(2-F)]TSD[4Pal][αMeS]I[αMeL]LD[Orn]K([AEEA-γGlu-C18 diacid])AA[Aib]EFI[dE][αMeY]LIEGGPSSGAPPPSG[dE]-NH2 [Example 721] | 7.74
H-Y[Aib]QGT[αMePhe(2-F)]TSD[4Pal]SILLDKK([γGlu-γGlu-C18 diacid])AQ[Aib]AFIEYLEEGGPSSGAPPPSGTEE-NH2 [Example 609] | 78.4
H-Y[Aib]QGT[αMePhe(2-F)]TSD[4Pal][αMeS]I[αMeL]LD[Orn]K([γGlu-γGlu-C18 diacid])AQ[Aib][Orn]FI[dE][αMeY]LSEGGPSSGEPPPSGTE-NH2 [Example 517] | 158
H-Y[Aib]QGT[αMePhe(2-F)]TSD[4Pal][αMeS]I[αMeL]LD[Orn]K([γGlu-γGlu-C18 diacid])AQ[Aib]NFI[dE][αMeY]LQEGGPSSGEPPPEGT-NH2 [Example 525] | 35.1
H-Y[Aib]QGT[αMePhe(2-F)]TSDYSILLDKK([γGlu-γGlu-C18 diacid])AQ[Aib]AFIEYLEEGGPSSGAPPPEEG-NH2 [Example 471] | 29.6
H-Y[Aib]QGT[αMePhe(2-F)]TSD[4Pal][αMeS]I[αMeL]LD[Orn]K([γGlu-γGlu-C18 diacid])AQ[Aib][Orn]FI[dE][αMeY]LAEGGPSSGEPPPSGEEE-NH2 [Example 592] | 97.1
H-Y[Aib]QGT[αMePhe(2-F)]TSD[4Pal]SILLDKK([γGlu-γGlu-C18 diacid])AQ[Aib]AFIEYLEEGGPSSGAPPPSGGEE-NH2 [Example 612] | 87
H-Y[Aib]QGT[αMePhe(2-F)]TSD[4Pal]SI[αMeL]LD[Orn]K([AEEA-γGlu-C18 diacid])AQ[αMe4Pal][Orn]FI[dE][αMeY]LIEGGPSSGEPPPEGE-NH2 [Example 675] | 11.1
Y[Aib]QGT[αMePhe(2-F)]TSD[4Pal][αMeS]I[αMeL]LD[Orn]K([AEEA-γGlu-C18 diacid])AA[Aib]EFI[dE][αMeY]LIEGGPSSGAPPPSGE-NH2 [Example 701] | 10
H-Y[Aib]QGT[αMePhe(2-F)]TSD[4Pal][αMeS]I[αMeL]LD[Orn]K([γGlu-γGlu-C18 diacid])AQ[αMe4Pal]EFI[dE][αMeY]LVEGGPSSGAPPPSGS-NH2 [Example 696] | 6.88
